Origin of measurements: patent US20200255436A1

assay: Solubility in different aqueous media; type: physicochemical; conditions: thermodynamic from solid; FaSSIF, equilibrium pH 6.73, 24 hours at room temperature
Assay readout: solubility at 24 h (µg/mL)
Dear colleague, please return just the value in µg/mL, with no unit written.

Recorded solubility at 24 h for CCC(CC)c1cc(C)nc2c(-c3sc(N4CCOCC4)nc3Cl)c(C)nn12 , please? 3.6

* * *

test: Study 2 Part A: multiple-dose (14 days) pharmacokinetics; type: in vivo, human; settings: human, plasma, oral; 150 mg daily, Day 14; geometric mean
Assay readout: AUC(0-inf) (ng·h/mL)
Unit ng·h/mL implied. Number only.

Param item = CCC(CC)c1cc(C)nc2c(-c3sc(N4CCOCC4)nc3Cl)c(C)nn12 [Compound 1] ; retrieve measured AUC(0-inf). 4680
